# Tested On: CDK2/cyclin A (Homo sapiens)
# Procedure Text: Functional kinase assay, CDK2/cyclin A phosphorylation of GST-pRb(773-928)
# Type: biochemical
# Condition Summary: read-out: Inhibitory activity IC50 ± SD, Functional kinase assay
Quantity Name: IC50

>>> df
                               query_smiles                     tested_on  quantity_name  observed_result
0  CC(=O)N[C@@H](CC(C)C)C(=O)N[C@@H](CC(N)=O)C(=O)N[C@@H](Cc1ccc(F)cc1)C(N)=O  CDK2/cyclin A (Homo sapiens)           IC50           139 µM

* * *

# Tested On: Cyclin A (Homo sapiens)
# Procedure Text: Cyclin A binding assay, immobilised biotinyl-Ahx-[…]NH2
# Condition Summary: Arg155 substitutions; relative to H-His-Ala-Lys-Arg-Arg-Leu-Ile-Phe-NH2 (=1)

Substance	Relative activity Cyclin A Binding
H-His-Ala-Lys-Nle-Arg-Leu-Ile Phe-NH2 (H-HAKHRLIF-NH2; not fully specified (residue 4); printed as H-His-Ala-Lys-Nle-Arg-Leu-Ile Phe-NH2)	<0.1
H-His-Ala-Lys-Ala-Arg-Leu-Ile Phe-NH2 (H-HAKARLIF-NH2)	<0.1
H-His-Ala-Lys-Lys-Arg-Leu-Ile Phe-NH2 (H-HAKKRLIF-NH2)	0.1
H-His-Ala-Lys-Gln-Arg-Leu-Ile Phe-NH2 (H-HAKQRLIF-NH2)	<0.1

* * *

Below is a list of entries, each paired with its recorded Relative activity Kinase Inhibition value.
# Tested On: CDK2/cyclin A (Homo sapiens)
# Procedure Text: CDK2/cyclin A kinase assay, substrate pRb(773-928)
# Type: biochemical
# Condition Summary: Ile158 substitutions; relative to H-His-Ala-Lys-Arg-Arg-Leu-Ile-Phe-NH2 (=1); pRb substrate, [ATP] = 100 μM
Square brackets hold non-standard residues; d marks the D form. Ends that are not written are not given here. 1Nal = N[C@@H](Cc1cccc2ccccc12)C(=O)O; Nle = CCCC[C@H](N)C(=O)O
Quantity Name: Relative activity Kinase Inhibition

Substance	Observed Result
H-His-Ala-Lys-Arg-Arg-Leu-Nle Phe-NH2 (H-HAKRRL[Nle]F-NH2; SMILES CCCC[C@H](NC(=O)[C@H](CC(C)C)NC(=O)[C@H](CCCNC(=N)N)NC(=O)[C@H](CCCNC(=N)N)NC(=O)[C@H](CCCCN)NC(=O)[C@H](C)NC(=O)[C@@H](N)Cc1c[nH]cn1)C(=O)N[C@@H](Cc1ccccc1)C(N)=O)	0.4
HAKRRLLF-NH2	1.2
H-His-Ala-Lys-Arg-Arg-Leu-1Nap-Phe-NH2 (H-HAKRRL[1Nal]F-NH2; SMILES CC(C)C[C@H](NC(=O)[C@H](CCCNC(=N)N)NC(=O)[C@H](CCCNC(=N)N)NC(=O)[C@H](CCCCN)NC(=O)[C@H](C)NC(=O)[C@@H](N)Cc1c[nH]cn1)C(=O)N[C@@H](Cc1cccc2ccccc12)C(=O)N[C@@H](Cc1ccccc1)C(N)=O)	0.5
HAKRRLFF-NH2	0.4
H-His Ala-Lys-Arg-Arg-Leu-Val-Phe-NH2 (H-HAKRRLVF-NH2)	0.8
HAKRRLAF-NH2	0.3

* * *

# Tested On: CDK2/cyclin A (Homo sapiens, UniProt P20248)
# Procedure Text: CDK2/cyclin A kinase assay, substrate pRb(773-928)
# Format: biochemical
# Condition Summary: Arg156 substitutions; relative to H-His-Ala-Lys-Arg-Arg-Leu-Ile-Phe-NH2 (=1); pRb substrate, [ATP] = 100 μM
Below is a list of entries, each paired with its recorded Relative activity Kinase Inhibition value.
Quantity Name: Relative activity Kinase Inhibition

>>> df
                                  substance                                 tested_on                        quantity_name  observed_result
0  H-His-Ala-Lys-Arg-Ala-Leu-Ile Phe-NH2 (H-HAKRALIF-NH2)  CDK2/cyclin A (Homo sapiens, UniProt P20248)  Relative activity Kinase Inhibition             <0.1
1     H-His-Ala-Lys-Arg-Sar-Leu-Ile Phe-NH2  CDK2/cyclin A (Homo sapiens, UniProt P20248)  Relative activity Kinase Inhibition             <0.1
2  H-His Ala-Lys-Arg-Pro-Leu-Ile Phe-NH2 (H-HAKRPLIF-NH2)  CDK2/cyclin A (Homo sapiens, UniProt P20248)  Relative activity Kinase Inhibition             <0.1
3  H-His-Ala-Lys-Arg-Asn-Leu-Ile Phe-NH2 (H-HAKRNLIF-NH2)  CDK2/cyclin A (Homo sapiens, UniProt P20248)  Relative activity Kinase Inhibition             <0.1
4     H-His-Ala-Lys-Arg-Aib-Leu-Ile Phe-NH2  CDK2/cyclin A (Homo sapiens, UniProt P20248)  Relative activity Kinase Inhibition             <0.1
5  H-His-Ala-Lys-Arg-Ser-Leu-Ile Phe-NH2 (H-HAKRSLIF-NH2)  CDK2/cyclin A (Homo sapiens, UniProt P20248)  Relative activity Kinase Inhibition              0.7

* * *

# Tested On: Cyclin A (Homo sapiens, UniProt P20248)
# Sequence (P20248 whole entry): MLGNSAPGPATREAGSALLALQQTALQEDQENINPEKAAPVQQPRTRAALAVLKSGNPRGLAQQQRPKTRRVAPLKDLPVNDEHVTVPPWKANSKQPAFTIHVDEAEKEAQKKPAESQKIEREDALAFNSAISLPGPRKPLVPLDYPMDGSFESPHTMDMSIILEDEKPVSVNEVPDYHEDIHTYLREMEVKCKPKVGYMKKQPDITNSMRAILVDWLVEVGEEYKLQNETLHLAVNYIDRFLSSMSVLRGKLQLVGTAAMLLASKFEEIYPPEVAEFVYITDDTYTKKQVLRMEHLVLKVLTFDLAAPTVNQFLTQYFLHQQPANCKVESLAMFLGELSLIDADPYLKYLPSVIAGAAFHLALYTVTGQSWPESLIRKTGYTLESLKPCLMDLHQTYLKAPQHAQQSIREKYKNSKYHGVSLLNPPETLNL
# Procedure Text: Cyclin A binding assay, immobilised biotinyl-Ahx-[…]NH2
# Condition Summary: Ile158 substitutions; relative to H-His-Ala-Lys-Arg-Arg-Leu-Ile-Phe-NH2 (=1)
Square brackets hold non-standard residues; d marks the D form. Ends that are not written are not given here. 1Nal = N[C@@H](Cc1cccc2ccccc12)C(=O)O
Below is a list of entries, each paired with its recorded Relative activity Cyclin A Binding value.

Substance	Sign Qualifier	Relative activity Cyclin A Binding
HAKRRLLF-NH2	=	0.6
HAKRRLF-NH2 [H-His-Ala-Lys-Arg-Arg-Leu-Phe-NH2]	<	0.1
H-His Ala-Lys-Arg-Arg-Leu-Val-Phe-NH2 (H-HAKRRLVF-NH2)	=	1.5
H-His-Ala-Lys-Arg-Arg-Leu-1Nap-Phe-NH2 (H-HAKRRL[1Nal]F-NH2; SMILES CC(C)C[C@H](NC(=O)[C@H](CCCNC(=N)N)NC(=O)[C@H](CCCNC(=N)N)NC(=O)[C@H](CCCCN)NC(=O)[C@H](C)NC(=O)[C@@H](N)Cc1c[nH]cn1)C(=O)N[C@@H](Cc1cccc2ccccc12)C(=O)N[C@@H](Cc1ccccc1)C(N)=O)	=	0.5
HAKRRLAF-NH2	=	0.8

* * *

Below is a list of entries, each paired with its recorded Relative activity Cyclin A Binding value.
# Tested On: Cyclin A (Homo sapiens)
# Procedure Text: Cyclin A binding assay, immobilised biotinyl-Ahx-[…]NH2
# Condition Summary: Arg156 substitutions; relative to H-His-Ala-Lys-Arg-Arg-Leu-Ile-Phe-NH2 (=1)
Quantity Name: Relative activity Cyclin A Binding

In [3]: df
Out[3]:
                                  substance                       quantity_name  observed_result
0  H-His Ala-Lys-Arg-Pro-Leu-Ile Phe-NH2 (H-HAKRPLIF-NH2)  Relative activity Cyclin A Binding             <0.1
1  H-His-Ala-Lys-Arg-Ala-Leu-Ile Phe-NH2 (H-HAKRALIF-NH2)  Relative activity Cyclin A Binding             <0.1
2  H-His-Ala-Lys-Arg-Ser-Leu-Ile Phe-NH2 (H-HAKRSLIF-NH2)  Relative activity Cyclin A Binding              0.2
3  H-His-Ala-Lys-Arg-Asn-Leu-Ile Phe-NH2 (H-HAKRNLIF-NH2)  Relative activity Cyclin A Binding             <0.1

* * *

# Tested On: CDK2/cyclin A (Homo sapiens)
# Procedure Text: CDK2/cyclin A kinase assay, substrate pRb(773-928)
# Format: biochemical
# Condition Summary: His152 substitutions; relative to H-His-Ala-Lys-Arg-Arg-Leu-Ile-Phe-NH2 (=1); pRb substrate, [ATP] = 100 μM
Below is a list of entries, each paired with its recorded Relative activity Kinase Inhibition value.
Quantity Name: Relative activity Kinase Inhibition

                                  substance  sign_qualifier  observed_result
0  H-Hse-Ala-Lys-Arg-Arg-Leu-Ile Phe-NH2 (XAKRRLIF; N-terminal Hse, C-terminal amide)               =                2
1  H-Thi-Ala-Lys-Arg-Arg-Leu-Ile Phe-NH2 (XAKRRLIF; N-terminal Thi, C-terminal amide)               =                2
2  H-Ala-Ala-Lys-Arg-Arg-Leu-Ile Phe-NH2 (H-AAKRRLIF-NH2)               =              1.8
3  H-Pya-Ala-Lys-Arg-Arg-Leu-Ile Phe-NH2 (XAKRRLIF; N-terminal Pya, C-terminal amide)               <              0.1
4  H-Dab-Ala-Lys-Arg-Arg-Leu-Ile Phe-NH2 (XAKRRLIF; N-terminal Dab, C-terminal amide)               =                5
5  H-Phe-Ala-Lys-Arg-Arg-Leu.Ile Phe-NH2 (H-FAKRRLIF-NH2)               =                3
